The measurements presented in this section are drawn from PubChem BioAssay (Tox21).

TESTED ON: Estrogen receptor (Homo sapiens)
MEASUREMENT PROTOCOL: qHTS assay to identify small molecule antagonists of the estrogen receptor alpha (ER-alpha) signaling pathway (AID 743069)
SETTINGS: HEK293 ER-alpha-UAS-bla, beta-lactamase ratio, antagonist mode; series mostly up to 69.4 µM
Text: National Center for Advancing Translational Sciences [NCATS] NIH Chemical Genomics Center [NCGC] U.S. Environmental Protection Agency [EPA] National Institutes of Environmental Health Sciences [NIEHS] National Toxicology Program [NTP] U.S. Food and Drug Administration [FDA] Estrogen receptor (ER), a nuclear hormone receptor, plays an important role in development, metabolic homeostasis and reproduction. […]
Records with an inconclusive call do not appear. Calls of active or inactive are those of the source. The call rests on the fitted dose curve; in most records, active means well fitted curve in the direction sought with a large enough effect in the signal ratio in the repeat runs (not every such curve was filed as active); inconclusive means weak or mixed curves, or effect the other way; inactive means no such curve, though single readings can be large or run the other way; the % refers to the signal ratio.
Outcome codes: TRUE (active), FALSE (inactive)

>  <COMPOUND>
O=S1(=O)CCCC1

>  <ASSIGNED CATEGORY>
FALSE

$$$$
>  <COMPOUND>
CN[C@@H]1[C@H](O)[C@H](NC)[C@H]2O[C@@]3(O)C(=O)C[C@@H](C)O[C@H]3O[C@@H]2[C@H]1O

>  <ASSIGNED CATEGORY>
FALSE

$$$$
>  <COMPOUND>
CCS(=O)(=O)CCn1c([N+](=O)[O-])cnc1C

>  <ASSIGNED CATEGORY>
FALSE

$$$$
>  <COMPOUND>
C[Si]1(C)N[Si](C)(C)N[Si](C)(C)N1

>  <ASSIGNED CATEGORY>
FALSE

$$$$
>  <COMPOUND>
CCCCCCCCCCCCC

>  <ASSIGNED CATEGORY>
FALSE

$$$$
>  <COMPOUND>
CC(=O)/C=C/c1ccco1

>  <ASSIGNED CATEGORY>
FALSE

$$$$
>  <COMPOUND>
CC(=O)Nc1ccc(C)cc1

>  <ASSIGNED CATEGORY>
FALSE

$$$$
>  <COMPOUND>
C=CC(C)(O)CC/C=C(\C)CC (stereo unspecified)

>  <ASSIGNED CATEGORY>
FALSE

$$$$
>  <COMPOUND>
Cc1ccccc1C

>  <ASSIGNED CATEGORY>
FALSE

$$$$
>  <COMPOUND>
C=CCOc1c(Br)cc(Br)cc1Br

>  <ASSIGNED CATEGORY>
FALSE

$$$$
>  <COMPOUND>
CCc1nccnc1C

>  <ASSIGNED CATEGORY>
FALSE

$$$$
>  <COMPOUND>
CO[Si](CCCCl)(OC)OC

>  <ASSIGNED CATEGORY>
FALSE

$$$$
>  <COMPOUND>
O=C1OC(=O)c2cc(Oc3ccc4c(c3)C(=O)OC4=O)ccc21

>  <ASSIGNED CATEGORY>
FALSE

$$$$
>  <COMPOUND>
CCCCCCCCCCCCCC(=O)OC

>  <ASSIGNED CATEGORY>
FALSE

$$$$
>  <COMPOUND>
CCCCCCCCCCCCOC(C)=O

>  <ASSIGNED CATEGORY>
FALSE

$$$$
>  <COMPOUND>
CNC(=O)NC

>  <ASSIGNED CATEGORY>
FALSE

$$$$
>  <COMPOUND>
COC(OC)C(C)c1ccccc1 (stereo unspecified)

>  <ASSIGNED CATEGORY>
FALSE

$$$$
>  <COMPOUND>
COc1cc([N+](=O)[O-])ccc1N

>  <ASSIGNED CATEGORY>
TRUE

$$$$
>  <COMPOUND>
Nc1ccnc(=O)[nH]1

>  <ASSIGNED CATEGORY>
FALSE

$$$$
>  <COMPOUND>
CCCO

>  <ASSIGNED CATEGORY>
FALSE

$$$$
>  <COMPOUND>
O=C(/C=C/c1ccccc1)NCCO

>  <ASSIGNED CATEGORY>
FALSE

$$$$
>  <COMPOUND>
C=C[Si](C)(C)O[Si](C)(C)C=C

>  <ASSIGNED CATEGORY>
FALSE

$$$$
>  <COMPOUND>
CC(C)CCC(=O)CCC(C)C

>  <ASSIGNED CATEGORY>
FALSE

$$$$
>  <COMPOUND>
Cc1cc(O)c2c(c1)C(=O)c1cccc(O)c1C2=O

>  <ASSIGNED CATEGORY>
FALSE

$$$$
>  <COMPOUND>
Cc1ccccc1OCC1CO1 (stereo unspecified)

>  <ASSIGNED CATEGORY>
FALSE

$$$$
>  <COMPOUND>
Nc1cc(Cl)cc(S(=O)(=O)O)c1O

>  <ASSIGNED CATEGORY>
FALSE

$$$$
>  <COMPOUND>
CC(C)(C)NCCO

>  <ASSIGNED CATEGORY>
FALSE

$$$$
>  <COMPOUND>
CC(Cl)COP(=O)(OCC(C)Cl)OCC(C)Cl (stereo unspecified)

>  <ASSIGNED CATEGORY>
FALSE

$$$$
>  <COMPOUND>
CNC(=O)C(c1ccccc1)c1ccccc1

>  <ASSIGNED CATEGORY>
FALSE

$$$$
>  <COMPOUND>
NS(=O)(=O)c1ccc(Cl)c(S(N)(=O)=O)c1

>  <ASSIGNED CATEGORY>
FALSE

$$$$
>  <COMPOUND>
O=C(COCCOCCOCC(=O)Nc1c(I)cc(I)c(C(=O)O)c1I)Nc1c(I)cc(I)c(C(=O)O)c1I

>  <ASSIGNED CATEGORY>
FALSE

$$$$

====

TESTED ON: Cytochrome P450 2D6 (Homo sapiens) (UniProt P10635)
Sequence (P10635 whole entry, looked up): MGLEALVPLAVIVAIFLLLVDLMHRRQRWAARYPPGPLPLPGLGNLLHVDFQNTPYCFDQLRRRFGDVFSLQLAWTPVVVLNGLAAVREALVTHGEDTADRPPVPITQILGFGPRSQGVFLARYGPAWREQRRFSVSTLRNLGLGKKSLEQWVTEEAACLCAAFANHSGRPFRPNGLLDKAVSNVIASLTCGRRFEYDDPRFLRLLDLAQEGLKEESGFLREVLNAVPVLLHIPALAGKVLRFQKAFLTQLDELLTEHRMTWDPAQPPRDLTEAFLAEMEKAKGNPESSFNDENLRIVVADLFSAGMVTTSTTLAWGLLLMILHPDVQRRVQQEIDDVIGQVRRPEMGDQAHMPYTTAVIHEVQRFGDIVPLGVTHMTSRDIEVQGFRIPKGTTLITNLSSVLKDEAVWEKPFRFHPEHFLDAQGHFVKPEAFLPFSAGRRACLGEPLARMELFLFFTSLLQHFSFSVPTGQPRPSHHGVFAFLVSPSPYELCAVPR
MEASUREMENT PROTOCOL: Cytochrome P450 Family 2 Subfamily D Member 6 (CYP2D6) small molecule antagonists: luciferase reporter qHTS assay (AID 1671196); further: nearly all actives have a fitted effect of over 50% in size
SETTINGS: P450-Glo CYP2D6 enzyme assay, luciferin luminescence, 1 h; series mostly up to 115 µM
Excerpt: U.S. Tox21 Program National Center for Advancing Translational Sciences [NCATS] U.S. Environmental Protection Agency [EPA] National Institutes of Environmental Health Sciences [NIEHS] National Toxicology Program [NTP] U.S. Food and Drug Administration [FDA] […] The luciferin products formed are detected with a luciferin detection reagent, and the amount of light produced is proportional to CYP activity. […]
Inconclusive results are not listed. Active and inactive are the calls of the source. Calls follow the shape of the dose curve; as a rule, active = well fitted inhibition curve with a large enough effect in the repeat runs; inconclusive = weak or mixed curves; inactive = no such curve, though single readings can be large or run the other way.
Outcome codes: yes for active, no for inactive

>  <COMPOUND>
O=S1(=O)CCCC1

>  <ASSIGNED CATEGORY>
no

$$$$
>  <COMPOUND>
NS(=O)(=O)c1cc2c(cc1Cl)NC(C(Cl)Cl)NS2(=O)=O (centres undefined)

>  <ASSIGNED CATEGORY>
no

$$$$
>  <COMPOUND>
CO[Si](CCCCl)(OC)OC

>  <ASSIGNED CATEGORY>
yes

$$$$
>  <COMPOUND>
CCCCC/C=C/CC(=O)OC

>  <ASSIGNED CATEGORY>
no

$$$$
>  <COMPOUND>
O=C(CN1CCN(Cc2ccc3c(c2)OCO3)CC1)N1c2ccccc2Sc2ccccc21

>  <ASSIGNED CATEGORY>
yes

$$$$
>  <COMPOUND>
CC(C)=CC(C)(C)C

>  <ASSIGNED CATEGORY>
no

$$$$
>  <COMPOUND>
CCCCCCCCCCCCC1CO1 (centres undefined)

>  <ASSIGNED CATEGORY>
no

$$$$
>  <COMPOUND>
CC1=CC[C@H](CC=O)C1(C)C

>  <ASSIGNED CATEGORY>
no

$$$$
>  <COMPOUND>
NC(=O)NC(=O)Cc1ccccc1

>  <ASSIGNED CATEGORY>
no

$$$$
>  <COMPOUND>
NS(=O)(=O)c1ccccc1OC(F)(F)F

>  <ASSIGNED CATEGORY>
no

$$$$
>  <COMPOUND>
O=CN1CCOCC1

>  <ASSIGNED CATEGORY>
no

$$$$
>  <COMPOUND>
O=C(Oc1ccccc1C(=O)O)c1ccccc1O

>  <ASSIGNED CATEGORY>
no

$$$$
>  <COMPOUND>
Nc1ccc(S(=O)(=O)Nc2ccccn2)cc1

>  <ASSIGNED CATEGORY>
no

$$$$
>  <COMPOUND>
Nc1cc(S(=O)(=O)O)ccc1S(=O)(=O)O

>  <ASSIGNED CATEGORY>
no

$$$$
>  <COMPOUND>
CC(CC(=O)O)CC(C)(C)C (centres undefined)

>  <ASSIGNED CATEGORY>
no

$$$$
>  <COMPOUND>
O=C1CC[C@H](C(=O)N2CCCCC2)N1

>  <ASSIGNED CATEGORY>
no

$$$$
>  <COMPOUND>
C=C[Si](C)(C)O[Si](C)(C)C=C

>  <ASSIGNED CATEGORY>
no

$$$$
>  <COMPOUND>
CCC(=O)c1ccc(O)cc1

>  <ASSIGNED CATEGORY>
no

$$$$
>  <COMPOUND>
COC(OC)C(C)c1ccccc1 (centres undefined)

>  <ASSIGNED CATEGORY>
no

$$$$
>  <COMPOUND>
Cn1c(=O)c2c(ncn2CC2OCCO2)n(C)c1=O

>  <ASSIGNED CATEGORY>
no

$$$$
>  <COMPOUND>
CCCCCCCCCCCCCC(=O)OC

>  <ASSIGNED CATEGORY>
no

$$$$
>  <COMPOUND>
Cc1cc(O)c2c(c1)C(=O)c1cccc(O)c1C2=O

>  <ASSIGNED CATEGORY>
no

$$$$
>  <COMPOUND>
CCCCOC(=O)C(C)OC(=O)CCC (centres undefined)

>  <ASSIGNED CATEGORY>
no

$$$$
>  <COMPOUND>
CC(C)(C)NCCO

>  <ASSIGNED CATEGORY>
no

$$$$
>  <COMPOUND>
CCc1nccnc1C

>  <ASSIGNED CATEGORY>
no

$$$$
>  <COMPOUND>
CCOC(=O)CC(CC(=O)OCC)(OC(C)=O)C(=O)OCC

>  <ASSIGNED CATEGORY>
no

$$$$
>  <COMPOUND>
CC(C)COC(=O)CC(C(=O)OCC(C)C)S(=O)(=O)O (centres undefined)

>  <ASSIGNED CATEGORY>
no

$$$$
>  <COMPOUND>
CCOC(=O)CCc1ccccc1

>  <ASSIGNED CATEGORY>
no

$$$$
>  <COMPOUND>
COc1ccc(N=Nc2cc(C)c(N=Nc3ccc(S(=O)(=O)O)cc3)cc2OC)cc1

>  <ASSIGNED CATEGORY>
no

$$$$
>  <COMPOUND>
Nc1cc(C(=O)O)ccc1Cl

>  <ASSIGNED CATEGORY>
no

$$$$
>  <COMPOUND>
CCCCCC1Nc2cc(C(F)(F)F)c(S(N)(=O)=O)cc2S(=O)(=O)N1 (centres undefined)

>  <ASSIGNED CATEGORY>
yes

$$$$
>  <COMPOUND>
CC(C)(c1ccc(Oc2ccc3c(c2)C(=O)OC3=O)cc1)c1ccc(Oc2ccc3c(c2)C(=O)OC3=O)cc1

>  <ASSIGNED CATEGORY>
yes

$$$$
>  <COMPOUND>
C[C@H](CCC(=O)NCC(=O)O)[C@H]1CC[C@H]2[C@@H]3[C@H](O)C[C@@H]4C[C@H](O)CC[C@]4(C)[C@H]3C[C@H](O)[C@]12C

>  <ASSIGNED CATEGORY>
no

$$$$
>  <COMPOUND>
COCCOCCOCCOC

>  <ASSIGNED CATEGORY>
no

$$$$
>  <COMPOUND>
C/C=C(\C)C(=O)OCC/C=C\CC

>  <ASSIGNED CATEGORY>
no

$$$$
>  <COMPOUND>
O=c1[nH]c(=O)c2ccccc2o1

>  <ASSIGNED CATEGORY>
no

$$$$
>  <COMPOUND>
CCCCCN(CCCOC)C(=O)C(CCC(=O)O)NC(=O)c1ccc(Cl)c(Cl)c1 (centres undefined)

>  <ASSIGNED CATEGORY>
no

$$$$
>  <COMPOUND>
O=C(O)c1c(Cl)ccc(Cl)c1Cl

>  <ASSIGNED CATEGORY>
no

$$$$
>  <COMPOUND>
C=C(C)C(=O)OC1CC(C)CC(C)(C)C1 (centres undefined)

>  <ASSIGNED CATEGORY>
no

$$$$
